# Experimental Target: HIV-1 protease (Human immunodeficiency virus type 1 group M subtype B, UniProt P04585)
# Construct: purified HIV-1 protease
# Test Details: biochemical
# Assay type: biochemical
# Conditions: 0.5M NaCl, 50 mM MES pH 5.6, 2% DMSO, 37° C., 200 μM substrate
Parameter: IC50 (µM)

>  <Compound>
CC(C)(C)N(CCO)C(=O)c1ccccc1CCC(O)Cc1ccccc1C(=O)N(c1ccccc1)C(C)(C)C (stereo not shown)

>  <Output Unit>
µM

>  <Numeric Result>
11.9

$$$$
>  <Compound>
CC(C)(C)NC(=O)c1ccccc1CC(O)CSc1ccc2ccccc2c1C(=O)NC(C)(C)C (stereo not shown)

>  <Output Unit>
µM

>  <Numeric Result>
50

$$$$

(I) CC(C)(C)NC(=O)c1ccccc1SCC(O)Cc1ccccc1C(=O)N(CCO)C(C)(C)C (stereo not shown)
(II) CC(C)(C)N(CCO)C(=O)c1ccccc1CCC(O)Cc1ccccc1C(=O)N(Cc1ccccc1)C(C)(C)C (stereo not shown)
Exercise: Higher IC50: I or II ? Let me know the label of the one you choose.
Key: I
(I: 25 µM, II: 8.3 µM)

(I) CC(C)(C)NC(=O)c1ccccc1CCC(O)Cc1ccccc1C(=O)NC(C)(C)C (stereo not shown)
(II) CC(C)(C)N(CCO)C(=O)c1ccccc1CCC(O)Cc1ccccc1C(=O)N(CCO)C(C)(C)Cc1ccccc1 (stereo not shown)
(III) CCC1(N(CCO)C(=O)c2ccccc2CCC(O)Cc2ccccc2C(=O)N(CCO)C(C)(C)c2ccccc2)CCCC1 (stereo not shown)
Exercise: # sort list by recorded IC50, greatest to least Show the ranking through the labels, in the order asked for.
Key: I, II, III

---

# System: HIV-1 (MT-2 cells)
# Test Details: Anti-HIV MTT assay, inhibition of HIV-induced cell killing, MT-2 cells
# Assay type: cell-based, HIV-1 isolates IIIB and/or RF
# Conditions: Human immunodeficiency virus 1, MT2, 144 h; MT-2 cells (second position), 6 days, 37° C., MTT; read-out: Viral MT-2
# key: entry, value: IC50
Write down the numeric answer in µg/mL and omit the unit.

>  <Molecule>
CCC1(N(CC(CO)CO)C(=O)c2ccccc2CCC(O)Cc2ccc(C)cc2C(=O)N(CC(CO)CO)C(C)(C)c2ccccc2)CCCC1 (stereo not drawn)

>  <Numeric Result>
1.34

$$$$

Exercise: Item CCC1(N(CCO)C(=O)c2ccccc2CCC(O)Cc2ccc(C)cc2C(=O)N(CCO)C(C)(C)c2ccc(OCc3ccc[n+]([O-])c3)cc2)CCCC1 (stereo not drawn) has what recorded IC50?
Key: 1.81

---

# Experimental Target: HIV-1 protease (Human immunodeficiency virus type 1 group M subtype B)
# Construct: purified HIV-1 protease
# Test Details: biochemical
# Type: biochemical
# Conditions: 0.5M NaCl, 50 mM MES pH 5.6, 2% DMSO, 37° C., 200 μM substrate
pIC50: −log10 of the molar value.
Parameter: pIC50

(a) CCC1(N(CCO)C(=O)c2ccccc2CCC(O)Cc2ccc(C)cc2C(=O)N(CCOC(=O)[C@@H](N)C(C)C)C(C)(C)c2ccccc2)CCCC1 (stereo partly shown)
(b) CC(C)(C)NC(=O)c1cc(Sc2ccccc2)ccc1CCC(O)Cc1ccccc1C(=O)N(CCO)C(C)(C)C (stereo not shown)
(c) CC(C)(C)NC(=O)c1c(CCC(O)CCc2ccc3ccccc3c2C(=O)NC(C)(C)C)ccc2ccccc12
Exercise: Ranking by pIC50 (descending) is requested for the entries above. Kindly provide the labels arranged according to the requested ordering.
Key: a, b, c
(a: 6.40, b: 6.17, c: 5.15)
